- System: MDA-MB-435
- TEST_DESCRIPTION: NCI tumour cell line growth inhibition, 48 h
READOUT_KIND: TGI (µM)
Report as a plain number; the unit µM is understood.

Before answering, review these 3 worked examples.
* COc1cc2c(cc1Nc1nc(N3CCc4ccccc43)c3cc[nH]c3n1)N(C(=O)CN(C)C)CC2 | 7.91
* COc1ccc2c(N)ncc(C#Cc3cc(C(=O)Nc4ccc(CN5CCN(C)CC5)c(C(F)(F)F)c4)cnc3C)c2c1 | 3.1
* CCN1C(=S)N(CC)C2C1NC(=S)N2/N=C/C=C/c1ccccc1OC (stereo not given) | 0.177

Proceed to the following item.
Using the record for CC(=O)ON1CCCC(P(=O)(OCOC(=O)C(C)(C)C)OCOC(=O)C(C)(C)C)C1=O (stereo not given) , state its measured TGI. 15

* * *

Known log10 of TGI of a selection of compounds
- Test system: T-47D breast
- TEST_DESCRIPTION: NCI tumour cell line growth inhibition, 48 h
Could you please treat all values as log10 of TGI in µM?

• CN(O)C(=O)/C=C/c1ccc(OCc2cccc(Cl)c2)cc1 = 1.82
• CCN=c1sc2c(n1NC(=O)c1cc3ccc1CCc1ccc(cc1)CC3)C(=O)c1ccccc1C2=O = 0.37
• CC1=CC2C3(C)C(C)(C(C)=CP3(=O)c3c(C(C)C)cc(C(C)C)cc3C(C)C)C1P2(=O)c1c(C(C)C)cc(C(C)C)cc1C(C)C (centres undefined) = 1.04
• CCN(CC)Cc1cc(Nc2nc(NC3CCC(N(C)C)CC3)c3ccccc3n2)ccc1OC (centres undefined) = 1.28

Proceed to the following item.
Using the record for `COc1cc2c(N3CCN(C(=O)Nc4ccc(OC(C)C)cc4)CC3)ncnc2cc1OCCCN1CCCCC1` , state its measured log10 of TGI. 1.79

* * *

- Test system: BT-549 breast
- TEST_DESCRIPTION: NCI tumour cell line growth inhibition, 48 h
Known TGI of a selection of molecules

Before answering, review these 5 worked examples.
* CC1(C)OC[C@@H]([C@@]2(CO[Si](c3ccccc3)(c3ccccc3)C(C)(C)C)CC=CC(=O)O2)O1 | 19 µM
* COC(=O)/C=C(/C=C1/C(C#N)=C(N)N(c2ccc(Cl)cc2)C1(C)/C(=C\C(=O)OC)C(=O)OC)C(=O)OC (stereo not given) | 30.2 µM
* Cc1cccc(NC(=O)c2sc3nc4c(cc3c2N)C(=O)CCC4)c1 | > 96.3 µM
* CNC(=O)c1ncccc1Nc1nc(Nc2cc3c(cc2OC)CCCN3C(=O)CN(C)C)nc2[nH]ccc12 | 6.04 µM
* COc1ccc(C2Oc3ccc(Cl)cc3C=C2[N+](=O)[O-])cc1 (stereo not given) | > 100 µM

Using the record for `CCCCCCN(CCCCCC)C(=S)N/N=C(\C)c1ccccn1` , state its measured TGI. 3.8 µM

Using the record for `Cc1nc(N)c(N2CCN(C#N)CC2)c(=O)[nH]1` , state its measured TGI. > 100 µM

Using the record for O=C(/C=C/C12c3ccccc3C(c3ccccc31)C1C(=O)NC(=O)C12)c1ccccn1 (stereo not given) , state its measured TGI. 3.69 µM

Using the record for `O=c1oc2ccccc2c(O)c1Cc1ccc(Cc2c(O)c3ccccc3oc2=O)cc1` , state its measured TGI. > 100 µM

* * *

- Tested on: SK-OV-3 ovarian
- TEST_DESCRIPTION: NCI tumour cell line growth inhibition, 48 h
READOUT_KIND: GI50

• CC(C)(CO)CNC(=O)c1ccc2[nH]c(O)c(N=Nc3ccc(S(N)(=O)=O)cc3)c2c1 = > 25 µM

Using the record for Nc1ncnc2c1N=C(c1ccc3c(c1)OCO3)CC(c1ccc(Cl)cc1)N2 (centres undefined) , state its measured GI50. 92.6 µM

Using the record for COC1N(C2CC(O)C(CO)O2)C(=O)NC(=O)C1(F)Br (centres undefined) , state its measured GI50. 99.4 µM

Using the record for `CCN(CC)CCCNc1ccc(C)c2sc3ccccc3c(=O)c12` , state its measured GI50. 1.51 µM

Using the record for `FC(F)(F)Oc1cccc(-c2cc(NCCCCCCNc3cc(-c4cccc(OC(F)(F)F)c4)nc4ccc(N5CCCC5)cc34)c3cc(N4CCCC4)ccc3n2)c1` , state its measured GI50. 1.78 µM

Using the record for N#CC(C(=O)C(=O)Nc1c(Cl)cccc1Cl)c1ccccc1 (centres undefined) , state its measured GI50. > 100 µM

* * *

- System: SF-268 CNS
- TEST_DESCRIPTION: NCI tumour cell line growth inhibition, 48 h
Known TGI of a selection of compounds

Before answering, review these 10 worked examples.
• COc1ccc2nc(NC(=O)/C(C#N)=C/c3ccccc3)sc2c1 = > 100 µM
• OCc1cc2c(cn1)[nH]c1ccc(NCc3ccccc3)cc12 = 70.9 µM
• Cn1c2ccccc2n2c3ncccc3c(=O)c(C#N)c12 = > 100 µM
• O=C1Oc2ccccc2C(=O)/C1=C1/C=C(c2ccccc2)SS1 = > 100 µM
• CNC(=O)c1ncccc1Nc1nc(Nc2cc3c(cc2OC)CCCN3C(=O)CN(C)C)nc2[nH]ccc12 = 5.4 µM
• FC(F)(F)Oc1cccc(-c2cc(NCCCCCCNc3cc(-c4cccc(OC(F)(F)F)c4)nc4ccc(N5CCCC5)cc34)c3cc(N4CCCC4)ccc3n2)c1 = 3.9 µM
• N#CNC(N)=NCc1ccccc1 = > 100 µM
• O=C1/C(=C/c2ccc(Cl)c(Cl)c2)CN(C(=O)CCN2CCC(=NO)CC2)C/C1=C\c1ccc(Cl)c(Cl)c1 = 2.88 µM
• CCOC(=O)CSc1nc(N)c2c(-c3ccccc3)c3c(nc2n1)CCCC3 = > 100 µM
• O=C1/C(=C\c2ccccc2)CN(C(=O)CCN2CCCCC2)C/C1=C/c1ccccc1 = 4.51 µM

Proceed to the following item.
Using the record for Cc1ccc2c(c1C)C(=O)C1(Cc3cc4c(cc3C1=O)CCC4)C2 (stereo unspecified) , state its measured TGI. > 100 µM

* * *

// NCI-H460 lung GI50 records

* C[C@]12CC[C@H]3[C@@H](CCC4=CC(=O)CC[C@@]43C)[C@@H]1CC[C@@H]2c1csc(N)n1 | 3.46 µM
* N#Cc1nc2c(S(=O)(=O)c3ccc(Cl)cc3)c(N)n(Nc3cccc(Cl)c3)c2nc1C#N | 0.0704 µM
* COc1cc2c(N3CCN(C(=O)Nc4ccc(OC(C)C)cc4)CC3)ncnc2cc1OCCCN1CCCCC1 | 18.4 µM
* Cc1c2ccnc(C(N)=O)c2c(C)c2c1[nH]c1ccccc12 | 2.62 µM
* O=C(OCc1ccc2c(Br)cc(Br)c(O)c2n1)c1cc2ccccc2[nH]1 | 1.53 µM

Using the record for `Cc1ccc(O)cc1Nc1ccnc2ccc(S(C)(=O)=O)cc12` , state its measured GI50. 10.5 µM

Using the record for `O=C1NN(C2=NNC3(C(=O)N2)c2ccccc2-c2ccccc23)C(c2ccccc2)=N/C1=C/c1ccc(Cl)cc1` , state its measured GI50. 48.7 µg/mL

Using the record for `Cc1ccc2c(-c3ccnc(Nc4ccc5c(c4)OCCO5)n3)c(-c3ccc(C(F)(F)F)cc3)nn2n1` , state its measured GI50. 5.66 µM

* * *

- Tested on: EKVX NSCLC
- TEST_DESCRIPTION: NCI tumour cell line growth inhibition, 48 h; in the data active = GI50 below about 0.43 µM; inactive = the rest
Permitted responses: label 1 = active, label 0 = inactive

Reference set (4 entries):
- COC1N(C2CC(O)C(CO)O2)C(=O)NC(=O)C1(F)Br (stereo not drawn): label 0
- c1ccc(-c2c(-c3ccccc3)[n+](Cc3ccc4ccccc4c3)c(-c3ccc(-c4nc5ccccc5s4)cc3)n2Cc2ccc3ccccc3c2)cc1: label 1
- COc1cc2c(N3CCN(C(=O)Nc4ccc(OC(C)C)cc4)CC3)ncnc2cc1OCCCN1CCCCC1: label 0
- CC(=O)ON1CCCC(P(=O)(OCOC(=O)C(C)(C)C)OCOC(=O)C(C)(C)C)C1=O (stereo not drawn): label 0

Assay outcome for COC(=O)OC1C(O[C@H]2C[C@H]3[C@@H]4CC=C5C[C@@H](O)CC[C@]5(C)[C@H]4CC[C@]3(C)[C@H]2[C@H](C)C(=O)CCC(C)C)OCC(O)C1OC1OCC(O)C(O)C1OC(=O)c1ccc(OC)cc1 (stereo partly drawn) : what was it? label 1

Assay outcome for `Cc1ccc2c(-c3ccnc(Nc4ccc5c(c4)OCCO5)n3)c(-c3ccc(C(F)(F)F)cc3)nn2n1` : what was it? label 0

Assay outcome for `Cn1nccc1Nc1nccc(-c2ccn([C@H](CO)c3ccc(Cl)c(F)c3)c(=O)c2)n1` : what was it? label 0

Assay outcome for `OC1(c2ccc(Cl)c(C(F)(F)F)c2)CCN(CCCC(c2ccc(F)cc2)c2ccc(F)cc2)CC1` : what was it? label 0

* * *

- System: SN12C renal
- TEST_DESCRIPTION: NCI tumour cell line growth inhibition, 48 h
READOUT_KIND: log10 TGI (log10 of the value in µM)
Could you please treat all values as log10 of TGI in µM?

Before answering, review these 3 worked examples.
• CC1(C)OC[C@@H]([C@@]2(CO[Si](c3ccccc3)(c3ccccc3)C(C)(C)C)CC=CC(=O)O2)O1 = 1.56
• CCCCCCN(CCCCCC)C(=S)N/N=C(\C)c1ccccn1 = 0.41
• O=CC(I)=C(c1ccccc1)c1ccccc1 = 1.66

Using the record for CN(C)CCCC1(c2ccc(F)cc2)OCc2cc(-c3cccc4[nH]ccc34)ccc21 (stereo unspecified) , state its measured log10 TGI. 0.47

Using the record for `COC(=O)CC(=O)OSc1ccccc1` , state its measured log10 TGI. 1.43
